Molecular target: TIM-3 on HEK 293T TIM-3稳转细胞 (UniProt Q8TDQ0)
Experiment: flow cytometry on HEK293T TIM-3 stable cells, 6 ug nanobody per well, anti-His Alexa Fluor 488
measurement-name: 结合力 (阳性细胞的比例)

Sample answers from the record:
binder	measurement-name	endpoint-value
Nb18 (VHH) VHH: QVQLQESGGGLVQPGGSLRLSCAASGFTFSVADMSWVRQGPGKGFEWVSSINSDGVSTYYADSVKGRFTISRDNAENTLYLRANSLKTEDTAVYYCAIGHTPCTAGSCRRGQGTQVTVSS	结合力 (阳性细胞的比例)	> 80%
Nb22 (VHH, Camel VHH from the pMECS vector, made in E. coli; detected through HA tag (ELISA) or His tag (flow cytometry); also called 抗体株22) VHH: QVQLQESGGGSVRAGGSLRLSCAASGYTYSLYCMGWFRQAPGKEREGVAAISAGGGTTYYSDAVKGRFTISRDNAKKTLYLQMNSLNPEDTAMYYCARSGGYCGLLEYPFTSWGPGTQVTVSS	结合力 (阳性细胞的比例)	> 80%
Nb25 (VHH, Camel VHH from the pMECS vector, made in E. coli; detected through HA tag (ELISA) or His tag (flow cytometry); also called 抗体株25) VHH: QVQLQESGGGSVQAGGSLRLSCAASVDIYRTYCMGWFRQAPGKQREGVAAISTDGRIRYANSVEGRFTISKDNANNTLYLQMNSLKPEDTAMYFCAADSARCGLWLGGGYPNYWGRGTQVTVSS	结合力 (阳性细胞的比例)	> 80%
Nb26 (VHH, Camel VHH from the pMECS vector, made in E. coli; detected through HA tag (ELISA) or His tag (flow cytometry); also called 抗体株26) VHH: QVQLQESGGGLVQPGGSLRLSCTASGSTFSTALMGWFRQAPGKEREGVAVISAGGGSTWYADSVKGRFTISRDNTKNTVFLQMISLKPEDTAMYYCASSNSLWTRESRYFGYWGQGTQVTVSS	结合力 (阳性细胞的比例)	> 80%
Nb27 (VHH) VHH: QVQLQESGGGLVQPGGSLRLSCAAAGFTFSSSEMTWVRQAPGKGLEWVARISSTSAFTQYAGSVKGRFTISRDNAKNTLYLQLNSLKTEDTAMYYCAKDVYCGGQYCPPVGPGTQVTVSS	结合力 (阳性细胞的比例)	> 80%
Nb24 (VHH) VHH: QVQLQESGGGLVQPGGSLRLSCAASGFTFSVADMSWVRQAPGKGLEWVSSINSGGGRTYYADSMKGRFTISRDNGKNTLYLQMNSLKTEDTAVYYCTIGHTYCSGGACLRGQGTQVTVSS	结合力 (阳性细胞的比例)	> 80%
Nb23 (VHH) VHH: QVQLQESGGGSVQTGGSLRLSCTASGFTFSSADMSWVRQAPGKGLEWVSSINSGGGWTDYADSVQGRFTISRDNGKNTLYLQMNSLKTEDTAVYYCTIGNTYCSRGACLRGQGTQVTVSS	结合力 (阳性细胞的比例)	> 80%
Nb21 (VHH, Camel VHH from the pMECS vector, made in E. coli; detected through HA tag (ELISA) or His tag (flow cytometry); also called 抗体株21) VHH: QVQLQESGGGSVQAGGSLRLYCAASKITYVSSCMGWFRQAPGKEREGVASIDRDGSTTYADSVKGRFTISRDNAKDSLYLQMNSLKPEDTAMYYCAADWGRWCSLEKAVDFVYWGQGTQVTVSS	结合力 (阳性细胞的比例)	> 80%
Nb16 (VHH, Camel VHH from the pMECS vector, made in E. coli; detected through HA tag (ELISA) or His tag (flow cytometry); also called 抗体株16) VHH: QVQLQESGGGSVQAGGSLRLSCTASRSTYCMGWFRQAPGKEREGVAIISSDGRTNYADPVKGRFTISKDNAKNTMFLQMNSLKPEDTAMYYCATRPGNSCGTGIDMPYWGKGTQVTVSS	结合力 (阳性细胞的比例)	> 80%

Next binder, 结合力 (阳性细胞的比例) to be filled in.
// query 结合力 (阳性细胞的比例) value for entry Nb20 (VHH) VHH: QVQLQESGGGLVQPGGSLRLSCAASGFTFSVADMTWVRQGLGKGFEWVASVNSDGGSTYYADSVKGRFTISRDNAKNTLYLRLNSLKTEDTAVYYCAIGRTPCTGGFCHRGQGTQVTVSS
> 80%
